TARGET OF ASSAY: Mitogen-activated protein kinase 14 (Homo sapiens, UniProt Q16539)
Sequence (Q16539 whole entry): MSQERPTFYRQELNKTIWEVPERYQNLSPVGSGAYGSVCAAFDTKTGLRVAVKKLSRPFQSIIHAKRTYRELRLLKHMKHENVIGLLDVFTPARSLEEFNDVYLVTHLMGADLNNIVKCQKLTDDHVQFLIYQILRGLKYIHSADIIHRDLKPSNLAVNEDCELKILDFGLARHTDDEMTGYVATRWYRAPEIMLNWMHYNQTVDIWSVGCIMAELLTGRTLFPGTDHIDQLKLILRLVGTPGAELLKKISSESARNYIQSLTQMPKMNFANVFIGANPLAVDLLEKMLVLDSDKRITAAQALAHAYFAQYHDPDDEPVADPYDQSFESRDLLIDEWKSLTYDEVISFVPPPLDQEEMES
ASSAY REMARKS: Inhibition of p38alpha
ASSAY METRIC: IC50
For clarity, give the value followed by its unit.

// known answers, use as guide
MOLECULE: CSc1nc(-c2ccccc2Cl)c2c(n1)N(c1c(Cl)cccc1Cl)C(=O)NC2
IC50: 10 nM

MOLECULE: CC(C)Nc1nc(-c2ccccc2Cl)c2c(n1)N(c1c(Cl)cccc1Cl)C(=O)NC2
IC50: 1.1 nM

MOLECULE: CN1C2CCC1CC(Nc1nc(-c3ccccc3Cl)c3c(n1)N(c1c(Cl)cccc1Cl)C(=O)NC3)C2 (centres undefined)
IC50: 0.5 nM

Okay, next one:
Please fill in: IC50 reported for "CC(C)N1CCN(c2nc(-c3ccc(Cl)cc3Cl)c3c(n2)N(c2c(Cl)cccc2Cl)C(=O)NC3)CC1" = 20 nM

* * *

TARGET OF ASSAY: Voltage-gated L-type calcium channel (Homo sapiens, UniProt Q13936+Q13698+Q01668+O60840)
ASSAY REMARKS: Binding affinity to DLZ binding site of calcium channel
Type: protein assay
Use TRUE when the recorded Activity is no lower than 3 µM; use FALSE when it is lower.

MOLECULE: Nc1nc(-c2ccccc2Cl)c2c(n1)N(c1c(Cl)cccc1Cl)C(=O)NC2
TARGET OF ASSAY: Voltage-gated L-type calcium channel (Homo sapiens, UniProt Q13936+Q13698+Q01668+O60840)
CAT: TRUE
--
MOLECULE: CN(C)CCN1CCN(c2nc(-c3ccc(Cl)cc3Cl)c3c(n2)N(c2c(Cl)cccc2Cl)C(=O)NC3)CC1
TARGET OF ASSAY: Voltage-gated L-type calcium channel (Homo sapiens, UniProt Q13936+Q13698+Q01668+O60840)
CAT: FALSE
--
MOLECULE: CN(C)c1nc(-c2ccccc2Cl)c2c(n1)N(c1c(Cl)cccc1Cl)C(=O)NC2
TARGET OF ASSAY: Voltage-gated L-type calcium channel (Homo sapiens, UniProt Q13936+Q13698+Q01668+O60840)
CAT: TRUE

Q) Entry O=C1NCc2c(-c3ccccc3Cl)nc(NC3CN4CCC3CC4)nc2N1c1c(Cl)cccc1Cl (stereo not drawn) : is its Activity no less than 3 µM?
A) FALSE

Q) Entry "CN(C)CCOc1nc(-c2ccccc2Cl)c2c(n1)N(c1c(Cl)cccc1Cl)C(=O)NC2" : is its Activity no less than 3 µM?
A) TRUE

Q) Entry "CC(C)N1CCN(c2nc(-c3ccc(Cl)cc3Cl)c3c(n2)N(c2c(Cl)cccc2Cl)C(=O)NC3)CC1" : is its Activity no less than 3 µM?
A) FALSE

* * *

TARGET OF ASSAY: Voltage-gated L-type calcium channel (Homo sapiens, UniProt Q13936+Q13698+Q01668+O60840)
ASSAY REMARKS: Binding affinity to DLZ binding site of calcium channel
Type: protein assay
ASSAY METRIC: Activity

// known answers, use as guide
CHEMICAL STRING: COCCNc1nc(-c2ccc(Cl)cc2Cl)c2c(n1)N(c1c(Cl)cccc1Cl)C(=O)NC2
RESULT: > 10 µM
--
CHEMICAL STRING: CS(=O)(=O)c1nc(-c2ccccc2Cl)c2c(n1)N(c1c(Cl)cccc1Cl)C(=O)NC2
RESULT: > 10 µM
--
CHEMICAL STRING: O=C1NCc2c(-c3ccccc3Cl)nc(O)nc2N1c1c(Cl)cccc1Cl
RESULT: 7 µM
--
CHEMICAL STRING: CC(C)(C)CNc1nc(-c2ccccc2Cl)c2c(n1)N(c1c(Cl)cccc1Cl)C(=O)NC2
RESULT: > 30 µM
--
CHEMICAL STRING: CNc1nc(-c2ccccc2Cl)c2c(n1)N(c1c(Cl)cccc1Cl)C(=O)NC2
RESULT: 10 µM

Please fill in: Activity reported for "CN(C)CCN1CCN(c2nc(-c3ccccc3Cl)c3c(n2)N(c2c(Cl)cccc2Cl)C(=O)NC3)CC1" = 1.7 µM

Please fill in: Activity reported for "CC(C)Nc1nc(-c2ccccc2Cl)c2c(n1)N(c1c(Cl)cccc1Cl)C(=O)NC2" = 10 µM

Please fill in: Activity reported for "CSc1nc(-c2ccccc2Cl)c2c(n1)N(c1c(Cl)cccc1Cl)C(=O)NC2" = 6 µM

Please fill in: Activity reported for "O=C1NCc2c(-c3ccccc3Cl)nc(NN3CCOCC3)nc2N1c1c(Cl)cccc1Cl" = 7 µM

Please fill in: Activity reported for "O=C1NCc2c(-c3ccccc3Cl)nc(N3CCOCC3)nc2N1c1c(Cl)cccc1Cl" = 6 µM

Please fill in: Activity reported for "CC(C)N1CCC(Nc2nc(-c3ccccc3Cl)c3c(n2)N(c2c(Cl)cccc2Cl)C(=O)NC3)CC1" = 3.3 µM

Please fill in: Activity reported for "C[C@@H]1CN(c2nc(-c3ccc(Cl)cc3Cl)c3c(n2)N(c2c(Cl)cccc2Cl)C(=O)NC3)C[C@H](C)O1" = 6 µM

Source of measurements: ChEMBL document CHEMBL1145325
